Target: SHP2 (Homo sapiens (Human), UniProt Q06124)
Sequence (Q06124 whole entry): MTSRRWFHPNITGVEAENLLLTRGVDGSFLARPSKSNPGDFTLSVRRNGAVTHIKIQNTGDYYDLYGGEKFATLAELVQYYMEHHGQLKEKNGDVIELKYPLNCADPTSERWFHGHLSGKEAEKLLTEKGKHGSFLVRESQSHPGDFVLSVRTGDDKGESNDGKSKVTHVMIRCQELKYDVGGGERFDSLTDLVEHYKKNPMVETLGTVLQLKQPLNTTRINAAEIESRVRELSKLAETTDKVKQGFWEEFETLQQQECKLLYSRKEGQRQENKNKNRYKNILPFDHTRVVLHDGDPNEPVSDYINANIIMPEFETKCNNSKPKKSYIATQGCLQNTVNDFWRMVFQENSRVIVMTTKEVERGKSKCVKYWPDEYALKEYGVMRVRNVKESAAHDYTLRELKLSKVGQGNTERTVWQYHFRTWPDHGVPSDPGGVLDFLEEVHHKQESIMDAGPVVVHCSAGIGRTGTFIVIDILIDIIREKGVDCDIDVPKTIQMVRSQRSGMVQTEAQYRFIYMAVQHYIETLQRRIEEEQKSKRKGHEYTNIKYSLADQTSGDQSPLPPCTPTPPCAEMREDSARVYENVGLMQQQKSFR
Assay: SHP2 allosteric inhibition assay (DiFMUP prompt fluorescence)
Assay type: biochemical
Details: 0.2 nM SHP2 activated with 0.5 μM Activating Peptide 1 or 2; substrate DiFMUP; Table 2, class symbols
pIC50: −log10 of the molar value.

Mol	pIC50
COc1cccc(-c2c(C)nc(N3CCC4(CC3)C[C@@H](OC3COC3)C[C@H]4N)n3ccnc23)c1Cl	≥ 7.30
C[C@@H]1OCC2(CCN(c3ncc(Sc4cccc(Cl)c4Cl)c4nccn34)CC2)[C@@H]1N	≥ 7.30
C[C@@H]1OCC2(CCN(c3ncc(Sc4ccnc(N5CC(S(C)(=O)=O)C5)c4Cl)c4nccn34)CC2)[C@@H]1N	≥ 7.30
Cc1nc(N2CCC3(CC2)CO[C@@H](C)[C@H]3N)n2cnnc2c1Sc1ccnc(N)c1Cl	≥ 7.30
COc1nccc(-c2c(C)nc(N3CCC4(CC3)CO[C@@H](C)[C@H]4N)n3ccnc23)c1Cl	≥ 7.30
NC[C@H]1CCN(c2ncc(Sc3ccnc(N)c3Cl)c3nccn23)C1	6.30 to 7.30
Nc1nccc(Sc2cnc(N3CCC[C@H]3CO)n3ccnc23)c1Cl	< 6.30
Nc1nccc(Sc2cnc(N3CC[C@H](O)C3)n3ccnc23)c1Cl	< 6.30
Cc1nc(N2CCC3(CC2)CO[C@@H](C)[C@H]3N)n2ccnc2c1Sc1ccnc(N)c1Cl	≥ 7.30
Cc1cc(Sc2cnc(N3CCC4(CC3)CO[C@@H](C)[C@H]4N)n3ccnc23)cc(N)n1	6.30 to 7.30
C[C@@H]1OCC2(CCN(c3nc4[nH]nc(-c5cccc(Cl)c5Cl)c4c4nccn34)CC2)[C@@H]1N	≥ 7.30
C[C@@H]1OCC2(CCN(c3ncc(Sc4ccnc(N)c4Cl)c4ncnn34)CC2)[C@@H]1N	≥ 7.30
NCCNc1ncc(Sc2ccnc(N)c2Cl)c2nccn12	< 6.30
Cc1nc(N2CCC3(CC2)CO[C@@H](C)[C@H]3N)n2ccnc2c1-c1ccn2ccnc2c1	6.30 to 7.30
C[C@@H]1OCC2(CCN(c3ncc(Sc4ccnc5nc[nH]c45)c4nccn34)CC2)[C@@H]1N	≥ 7.30
Nc1nccc(Sc2cnc(N3CC(O)C3)n3ccnc23)c1Cl	< 6.30

Data provenance: patent US11673901B2
